# Protocol Summary: Volume of distribution at steady state in dog at 4.1 mg/kg
# Assay type: ADME, organism-based, Canis lupus familiaris
# Design: dose 4.1 mg/kg
# Condition Label: in vivo, read-out: Vdss
Measurement Name: Vd (L/kg)
The reply should contain only the number, in L/kg.

In: What Vd value was documented for this compound, `CCCN1CCC(c2nc3cccc(C(N)=O)c3[nH]2)CC1` ?
Out: 3.6

###

# Protocol Summary: Clearance in rat at 4.1 mg/kg
# Assay type: ADME, organism-based
# Set-up: dose 4.1 mg/kg
# Condition Label: in vivo
Measurement Name: clearance (mL/min/kg)
Numeric answer only, unit mL/min/kg assumed.

In: Which clearance is reported for this compound? `CCCN1CCC(c2nc3cccc(C(N)=O)c3[nH]2)CC1`
Out: 48.3

###

# Protocol Summary: Cmax in rat at 4.1 mg/kg, po
# Type: ADME, organism-based
# Design: dose 4.1 mg/kg, route oral
# Condition Label: in vivo
Measurement Name: Cmax (ng/mL)
Response body: numeric value in ng/mL, unit text excluded.

In: Could you tell me which Cmax is on file for `CCCN1CCC(c2nc3cccc(C(N)=O)c3[nH]2)CC1` ?
Out: 800

###

# Protocol Summary: Oral bioavailability in rat at 4.1 mg/kg
# Type: ADME, organism-based
# Condition Label: in vivo
Measurement Name: bioavailability

In: Dear colleague, I am looking for the recorded bioavailability of the following compound: `CCCN1CCC(c2nc3cccc(C(N)=O)c3[nH]2)CC1`
Out: 48%

###

# Protocol Summary: Half life in rat at 4.1 mg/kg, iv
# Type: ADME, organism-based
# Design: dose 4.1 mg/kg, route intravenous
# Condition Label: in vivo
Measurement Name: half-life (h)
Only the number, expressed in h, is required.

In: Fill in the blank: the reported half-life of `CCCN1CCC(c2nc3cccc(C(N)=O)c3[nH]2)CC1` is ____.
Out: 2.6

###

For each record, write down the corresponding EC50.
Write down the numeric answer in nM and omit the unit.

In: Look up EC50 with Poly [ADP-ribose] polymerase 1 (Homo sapiens) for this molecule: `CC(C)N1CCC[C@H]1c1nc2c(C(N)=O)cccc2[nH]1`
Sequence (P09874 whole entry): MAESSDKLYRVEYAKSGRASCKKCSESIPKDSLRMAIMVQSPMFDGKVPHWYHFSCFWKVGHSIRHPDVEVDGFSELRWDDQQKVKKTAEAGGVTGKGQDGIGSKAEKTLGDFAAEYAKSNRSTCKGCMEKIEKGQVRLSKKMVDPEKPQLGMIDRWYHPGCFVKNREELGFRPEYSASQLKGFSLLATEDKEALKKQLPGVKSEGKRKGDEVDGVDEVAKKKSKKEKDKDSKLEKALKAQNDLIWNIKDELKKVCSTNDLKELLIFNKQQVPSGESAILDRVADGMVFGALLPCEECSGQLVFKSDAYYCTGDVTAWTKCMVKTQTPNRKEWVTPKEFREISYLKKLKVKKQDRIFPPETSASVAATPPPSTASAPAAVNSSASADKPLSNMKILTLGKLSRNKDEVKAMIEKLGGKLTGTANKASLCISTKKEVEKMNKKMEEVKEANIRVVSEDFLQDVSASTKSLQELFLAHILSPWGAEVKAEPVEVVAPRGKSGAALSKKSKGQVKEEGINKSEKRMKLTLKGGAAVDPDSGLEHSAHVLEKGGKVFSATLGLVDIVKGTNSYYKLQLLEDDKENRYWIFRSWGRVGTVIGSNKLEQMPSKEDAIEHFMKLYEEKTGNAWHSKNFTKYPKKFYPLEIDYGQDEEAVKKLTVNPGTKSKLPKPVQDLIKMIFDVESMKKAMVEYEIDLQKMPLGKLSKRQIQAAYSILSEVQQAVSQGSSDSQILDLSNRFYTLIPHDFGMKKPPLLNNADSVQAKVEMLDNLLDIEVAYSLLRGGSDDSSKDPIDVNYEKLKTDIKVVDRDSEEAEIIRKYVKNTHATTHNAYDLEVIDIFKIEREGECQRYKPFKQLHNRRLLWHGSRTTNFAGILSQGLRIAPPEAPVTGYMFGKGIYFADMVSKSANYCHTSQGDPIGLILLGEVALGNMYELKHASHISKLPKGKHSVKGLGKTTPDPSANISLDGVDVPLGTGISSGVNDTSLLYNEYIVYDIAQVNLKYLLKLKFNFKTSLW
Out: 15

In: Lookup: EC50 / Poly [ADP-ribose] polymerase 1 (Homo sapiens) / CC(C)N1CCCC(c2nc3cccc(C(N)=O)c3[nH]2)C1 (centres undefined)
Out: 12

In: Any idea what EC50 came out for `CC(C)N1CCC[C@@H]1c1nc2cccc(C(N)=O)c2[nH]1` on Poly [ADP-ribose] polymerase 1 (Homo sapiens)?
Out: 12

In: GET /values?readout=EC50&system=Poly [ADP-ribose] polymerase 1 (Homo sapiens)&item= CC(C)N1CCCCC1c1nc2c(C(N)=O)cccc2[nH]1 (centres undefined)
Out: 13

###

# Protocol Summary: Oral bioavailability in CD1 mouse at 10 mg/kg
# Format: ADME, organism-based
# Condition Label: in vivo
Measurement Name: bioavailability (%)
Quick note: give the figure in %, leave out the unit.

In: So what does the record say about bioavailability for `CC(C)N1CCC(c2nc3c(C(N)=O)cc(Cl)cc3[nH]2)CC1` ?
Out: 100

In: Give the measured bioavailability of CC(C)N1CCCC(c2nc3cccc(C(N)=O)c3[nH]2)C1 (stereo not drawn) .
Out: 100

In: Return reported bioavailability; argument: `CCCN1CCC(c2nc3cccc(C(N)=O)c3[nH]2)CC1`
Out: 63

###

Would you mind telling me the reported Ki of each entry?
Number only, in nM; omit the unit.

In: Value wanted: Ki (Poly [ADP-ribose] polymerase 1 (Homo sapiens)) of entry `CCCN1CCC(c2nc3cccc(C(N)=O)c3[nH]2)CC1`
Out: 8

In: Form field - read-out: Ki; system: Poly [ADP-ribose] polymerase 1 (Homo sapiens); submitted item: COC1CCC(c2nc3cccc(C(N)=O)c3[nH]2)CC1 (configuration not stated)
Out: 44

In: Write down the reported Ki of CN1CCN(C)C(c2nc3cccc(C(N)=O)c3[nH]2)C1 (configuration not stated) , test system: Poly [ADP-ribose] polymerase 1 (Homo sapiens).
Out: 35

In: Enter reported Ki observed with Poly [ADP-ribose] polymerase 1 (Homo sapiens) for CCCN1CCC(c2nc3c(C(N)=O)cccc3[nH]2)C1 (configuration not stated)
Out: 8

In: Please state recorded Ki (tested on Poly [ADP-ribose] polymerase 1 (Homo sapiens)) of NC(=O)c1cccc2[nH]c(C3CNCCN3)nc12 (configuration not stated)
Out: 26

In: Notebook: pull reported Ki for Poly [ADP-ribose] polymerase 1 (Homo sapiens), entry `NC(=O)c1cccc2[nH]cnc12`
Out: 240

In: Observed Ki on Poly [ADP-ribose] polymerase 1 (Homo sapiens) for `NC(=O)c1cccc2[nH]c(C3CCN(S(=O)(=O)c4ccccc4)CC3)nc12` , please.
Out: 27
